# measurement description: qHTS assay for cell viability of the p53RE-bla HCT-116 cell line (AID 743292); note: nearly all actives have a fitted effect of over 55% in size
# experimental conditions: p53RE-bla HCT-116 viability, ATP luminescence, 16 h; series mostly up to 95 µM
Results filed as inconclusive are left out. Activity calls are given as the source filed them. Calls come from the whole dose curve; as a rule, active = well fitted cell-killing curve with a large enough effect; inconclusive = small, poorly fitted or top-dose-only effect, or effect the other way; inactive = flat fitted curve, though single readings scatter.
Permitted responses: active, inactive

CCOP(=S)(Oc1cnc(C(C)(C)C)nc1)OC(C)C (stereo not given): inactive

What is the recorded call for this molecule in the test? COC(=O)N(C(=O)N1COC2(C(=O)OC)Cc3cc(Cl)ccc3C2=N1)c1ccc(OC(F)(F)F)cc1 (stereo not given)
inactive

Record request — test call for `CC(C)(C)OOC(C)(C)c1ccc(C(C)(C)OOC(C)(C)C)cc1`
inactive
